# PROTOCOL: permeability through Caco-2 cell layers
# Assay type: in vitro ADME
# RUN CONDITIONS: human
PARAMETER: Papp A→B (×10⁻⁶ cm/s)
Respond with the bare value in ×10⁻⁶ cm/s.

Prompt: Which Papp A→B is listed for Cn1cc(/C=C/C(=O)N2CCC[C@@H](Cn3cc(CN)nn3)C2)cn1 (racemic) ?
Completion: 5.6
